Entries and their pKi
System Name: CDK4/Cyclin D3 complex (Homo sapiens, UniProt P11802)
Construct: made in house; host or cells: insect cells co-infected with baculovirus expression vectors
Sequence (P11802 whole entry): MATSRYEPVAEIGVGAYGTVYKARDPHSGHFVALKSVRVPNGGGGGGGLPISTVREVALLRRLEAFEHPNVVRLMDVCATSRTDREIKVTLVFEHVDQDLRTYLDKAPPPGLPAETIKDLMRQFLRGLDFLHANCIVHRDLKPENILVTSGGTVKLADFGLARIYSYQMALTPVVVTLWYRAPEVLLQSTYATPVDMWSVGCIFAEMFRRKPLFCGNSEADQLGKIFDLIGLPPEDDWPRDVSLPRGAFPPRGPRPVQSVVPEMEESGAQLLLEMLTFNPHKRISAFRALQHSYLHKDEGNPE
Sequence (P30281 whole entry partner): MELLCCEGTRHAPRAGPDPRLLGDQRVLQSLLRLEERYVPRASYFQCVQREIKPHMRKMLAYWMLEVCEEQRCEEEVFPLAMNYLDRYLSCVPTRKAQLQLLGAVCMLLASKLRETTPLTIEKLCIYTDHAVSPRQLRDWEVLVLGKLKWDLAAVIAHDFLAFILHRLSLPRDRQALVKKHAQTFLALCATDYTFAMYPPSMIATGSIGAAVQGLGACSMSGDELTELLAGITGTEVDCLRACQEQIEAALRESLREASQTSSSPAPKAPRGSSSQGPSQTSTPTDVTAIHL
Experimental Protocol: CDK4/Cyclin D assay (32P incorporation into Rb fragment)
Assay type: biochemical
Test Settings: apparent Ki; 50 nM CDK4/Cyclin D3 complex, 25 μM ATP
pKi: −log10 of the molar value.
Reported Metric: pKi

Molecule	Reported Metric	Experimental Result
ON=C1c2ccccc2-c2cc3[nH]nnc3cc21 (mixture of isomers) [Example C]	pKi	6.67
Nc1nc2cc3c(cc2[nH]1)-c1ccccc1C3=NO (mixture of isomers) [Example B]	pKi	6.10
O/N=C1/c2ccccc2-c2nc3nonc3nc21 [Comparison Ex. 1, reference compound]	pKi	5.68
Nc1cc2c(cc1[N+](=O)[O-])-c1ccccc1C2=NO [Comparison Ex. 2(a), reference compound]	pKi	5.75
Nc1cc2c(cc1N)-c1ccccc1C2=NO [Comparison Ex. 2(b), reference compound]	pKi	5.49
Nc1cc2c(cc1[N+](=O)[O-])-c1cc([N+](=O)[O-])c(N)cc1C2=NO [Comparison Ex. 2(c), reference compound]	pKi	5.44
ON=C1c2ccccc2-c2cc3[nH]cnc3cc21 (mixture of isomers) [Example A]	pKi	5.63
ON=C1c2cc(I)ccc2-c2cc3[nH]nnc3cc21 (mixture of isomers) [Example D]	pKi	5.92
